Below is a list of entries, each paired with its recorded Ki value.
# assay-system: opioid receptor delta (Homo sapiens)
# Construct: expressed in transfected cells
# Sequence (P41143 whole entry): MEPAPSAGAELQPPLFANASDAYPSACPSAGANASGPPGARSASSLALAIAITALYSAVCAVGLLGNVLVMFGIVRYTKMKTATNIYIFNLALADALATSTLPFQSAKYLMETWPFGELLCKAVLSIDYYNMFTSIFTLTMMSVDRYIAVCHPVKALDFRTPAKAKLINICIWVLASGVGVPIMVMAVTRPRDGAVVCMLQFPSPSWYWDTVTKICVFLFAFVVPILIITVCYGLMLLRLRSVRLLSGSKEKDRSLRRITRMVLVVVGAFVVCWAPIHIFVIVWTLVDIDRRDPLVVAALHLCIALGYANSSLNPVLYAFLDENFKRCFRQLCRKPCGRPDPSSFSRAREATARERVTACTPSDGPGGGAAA
# test-description: GTPγ[35S] binding assay, antagonism of BW-373U86
# Format: biochemical
# assay-context: read-out: Delta functional Ki (GTPγ[35S] binding)
Report only the number, with the unit µM understood.

Q: Requested field: Ki. Item: Cc1cc(C(N)=O)ccc1-c1cc(F)c(CNCCC2CCOCC2)c(F)c1
Ans: 0.000707

Q: Now consider NC(=O)c1ccc(-c2ccc(CNC3Cc4ccccc4C3)c(F)c2)c(Cl)c1 .
Ans: 0.000629

Q: Now consider Cc1cc(C(N)=O)ccc1-c1ccc(CN[C@H]2CCc3ccccc32)cc1 .
Ans: 0.00109

Q: Now consider Cc1cc(C(N)=O)cc(Cl)c1-c1ccc(CNCCC(C)C)cc1 .
Ans: 0.00666
